System: HCT-116
Assay: Antiproliferative activity against human HCT-116 cells assessed as cell growth inhibition incubated for 7 days by Cell Titer-Glo luminescent assay
Format: functional, cell-based
Details: HCT-116, 168 h
Property Measured: IC50 (µM)

I = C=C1CN2CCC[C@@]2(COc2nc(N3CCN(C(=O)/C=C/c4cccc5c4CNCC5)C[C@@H]3C)c3cc(Cl)c(-c4nc(N)cc(C)c4C(F)(F)F)c(F)c3n2)C1
II = C=C1CN2CCC[C@@]2(COc2nc3c4c(c(Cl)c(-c5nc(N)cc(C)c5C(F)(F)F)c(F)c4n2)OC[C@@H]2CN(C(=O)/C=C/c4nccc5c4CNCC5)CCN32)C1
Inquiry: Higher IC50: I or II ? Label of pick, please.
Reply text: II

----------
Experiment: Selectivity ratio of IC50 for inhibition of Biotinylated KRAS G13D mutant (unknown origin) to IC50 for inhibition of Biotinylated wild type KRAS (unknown origin)
Property Measured: Ratio IC50

// known answers, use as guide
>>> reported("Cc1cc(N)nc(-c2cc3nc(OC[C@@H]4CCCN4C)nc4c3c(c2Cl)OC[C@@H]2CN(C(=O)C3CCC5(CNC5)O3)CCN42)c1C(F)(F)F (mixture of isomers)")
2.5
>>> reported("Cc1cc(N)nc(-c2cc3nc(OC[C@@H]4CCCN4C)nc4c3c(c2Cl)OC[C@@H]2CN(C(=O)C#CC3CCNC3)CCN42)c1C(F)(F)F (mixture of isomers)")
2.3
>>> reported("Cc1cc(N)nc(-c2c(Cl)c3c4c(ncnc4c2F)N2CCN(C(=O)/C=C/c4nccc5c4CNCC5)C[C@H]2CO3)c1C(F)(F)F")
5.9
>>> reported("Cc1cc(N)nc(-c2cc3nc(OC[C@@H]4CCCN4C)nc4c3c(c2Cl)OC[C@@H]2CN(C(=O)CCC3CCNC3)CCN42)c1C(F)(F)F (mixture of isomers)")
2
>>> reported("Cc1cc(N)nc(-c2cc3nc(OC[C@@H]4CCCN4C)nc4c3c(c2Cl)OC[C@@H]2CN(C(=O)CC3CCNCC3)CCN42)c1C(F)(F)F")
2
>>> reported("C=C1CN2CCC[C@@]2(COc2nc3c4c(c(Cl)c(-c5nc(N)cc(C)c5C(F)(F)F)cc4n2)OC[C@@H]2CN(C(=O)/C=C/c4nccc5c4CNCC5)CCN32)C1")
7.3
>>> reported("Cc1cc(N)nc(-c2cc3nc(OC[C@@H]4CCCN4C)nc4c3c(c2Cl)OC[C@@H]2CN(C(=O)C[C@H]3CCC35CNC5)CCN42)c1C(F)(F)F")
1.1
>>> reported("C=C1CN2CCC[C@@]2(COc2nc3c4c(c(Cl)c(-c5nc(N)cc(C)c5C(F)(F)F)cc4n2)OC[C@@H]2CN(C(=O)/C=C/c4nccc5c4CN(C)CC5)CCN32)C1")
0.88

1 = Cc1cc(N)nc(-c2cc3nc(OC[C@@H]4CCCN4C)nc4c3c(c2Cl)OC[C@@H]2CN(C(=O)C3CC(N)CCO3)CCN42)c1C(F)(F)F (mixture of isomers)
2 = C=C1CN2CCC[C@@]2(COc2nc(N3CCN(C(=O)/C=C/c4cc(CN5CCOCC5)ccn4)C[C@@H]3C)c3cc(Cl)c(-c4nc(N)cc(C)c4C(F)(F)F)c(F)c3n2)C1
Inquiry: Higher Ratio IC50: 1 or 2 ? Label of pick, please.
Reply text: 2
(2: 1.2, 1: 0.41)

1 = Cc1cc(N)nc(-c2cc3nc(OC[C@@H]4CCCN4C)nc4c3c(c2Cl)OC[C@@H]2CN(C(=O)CC[C@@]3(C)CCCN3)CCN42)c1C(F)(F)F
2 = C=C1CN2CCC[C@@]2(COc2nc(N3CCN(C(=O)/C=C/c4cc(CNC)c(C)cn4)C[C@@H]3C)c3cc(Cl)c(-c4nc(N)cc(C)c4C(F)(F)F)c(F)c3n2)C1
Inquiry: Higher Ratio IC50: 1 or 2 ? Label of pick, please.
Reply text: 2

Recorded values, source ChEMBL document CHEMBL5329224.
